tested on: Fibroblast; test: Multiplex assay against human fibroblast; assay type: toxicity, cell-based; settings: 12 h, 1 µM, compound concentration 1 uM, replicate 1
The reader will find reported Population Mitotic Cells (%) values listed item by item below.

>  <molecule>
Cl.Cl.Nc1ncnc2c1c(-c1cccc(OCc3ccccc3)c1)cn2[C@H]1C[C@@H](CN2CCC2)C1

>  <studySystem>
Fibroblast

>  <unit>
%

>  <Population Mitotic Cells (%)>
29

$$$$
>  <molecule>
CN(C)C/C=C/C(=O)Nc1cc2c(Nc3ccc(F)c(Cl)c3)ncnc2cc1O[C@H]1CCOC1.O=C(O)/C=C\C(=O)O.O=C(O)/C=C\C(=O)O [AFATINIB DIMALEATE]

>  <studySystem>
Fibroblast

>  <unit>
%

>  <Population Mitotic Cells (%)>
33

$$$$
>  <molecule>
CCCn1c(=O)c2[nH]c(C34CC5CC(CC3C5)C4)nc2n(CCC)c1=O [ROLOFYLLINE]

>  <studySystem>
Fibroblast

>  <unit>
%

>  <Population Mitotic Cells (%)>
32

$$$$
>  <molecule>
COc1ccc(NS(=O)(=O)c2sc3ccc(Cl)cc3c2C)cc1N1CCNCC1.Cl

>  <studySystem>
Fibroblast

>  <unit>
%

>  <Population Mitotic Cells (%)>
50

$$$$

FYI, the data here is from ChEMBL document CHEMBL4689842.
